# System: MOLT-4 leukemia
# ASSAY TEXT: NCI-60 one-dose screen, 48 h (100 = growth as untreated, 0 = no growth, -100 = all killed)
# EXPERIMENTAL SETUP: 10 µM unless noted
The panel holds about 83,000 compounds, 20% with a hit somewhere; the sample as a whole holds those more often. The source made the active and inactive calls. The calls were made as follows: active = growth percent below 10; inactive = the rest.
QUANTITY: growth

1. O=C1NC2(Nc3ccccc31)C(=O)Nc1c(Cl)cc(Cl)cc12 (stereo not drawn) :: 93% (inactive)

Hi! Can you tell me growth for each of these molecules?
1. Cc1nc2sc(C(=O)Nc3cccc(Br)c3)c(N)c2cc1C(O)c1ccccc1 (stereo not drawn)
2. O=c1[nH]c(-c2ccccc2)nc2sc3cc(O)ccc3c12

stdout:
["17.1% (inactive)", "66.9% (inactive)"]

###

# System: HCT-15 colon
# ASSAY TEXT: NCI-60 one-dose screen, 48 h (100 = growth as untreated, 0 = no growth, -100 = all killed)
# EXPERIMENTAL SETUP: 10 µM unless noted
# Description: Growth inhibition of the HCT-15 human tumor cell line is measured as a screen for anti-cancer activity. Cells are grown in 96 well plates and exposed to the test compound for 48 hours. Compounds are tested at a single concentration, which is 10^-5 M for most compounds. The reported endpoint is percent growth (GI% or GIPRCNT), where numbers from 0 - 100% represent growth inhibition, and numbers from -100% - 0 represent cell death. For example, a value of 40 represents 60% growth inhibition. […]
The panel holds about 83,000 compounds, 20% with a hit somewhere; the sample as a whole holds those more often. Calls of active or inactive are those of the source. The calls were made as follows: active = growth percent below 10; inactive = the rest.
Exercise: state measured growth for each of the compounds provided.

1. Cc1ccc(C2=Nc3c(N)ncnc3NC(c3cccc(Nc4ccnc5cc(C(F)(F)F)ccc45)c3)C2)cc1 (configuration not stated) :: 6.14% (active)
2. COc1ccc(C(C)=O)cc1S(=O)(=O)Nc1c(N)nc(SC)[nH]c1=O :: 100% (inactive)
3. O=C(Nc1ccc(OS(=O)(=O)c2ccc(F)cc2)cc1)C1CCCCCC1 :: 54.7% (inactive)
4. CCn1c(SCC(=O)N/N=C(\C)c2ccc(Cl)cc2)nc2c1c(=O)n(C)c(=O)n2C :: 104% (inactive)
5. O=C(N(c1ccccc1)c1ccccc1)n1cc(I)c2nc(Cl)nc(Cl)c21 :: 30.6% (inactive)
6. NNc1nc(-c2cccnc2)nc2c1sc(=S)n2-c1ccccc1 :: 96.3% (inactive)

Hi there! I need growth for each item below, if you can.
1. Cn1ccnc1C(=O)/C=C/c1ccc(C(=O)Nc2ccc(Cl)cc2)cc1
2. Cc1cc(=O)oc2cc(OCc3nn4c(Nc5nc6ccccc6s5)c(-c5ccccc5)nc4s3)ccc12
3. C#Cc1c2c(c(OC)c3c1OCO3)[C@H]([C@H]1OC(=O)c3c1ccc(OC)c3OC)N(C)CC2
4. C1CN(SSN2CCOCC2)CCO1
5. CCc1ncnc2c1ccn2C(C)c1ccc(OC)c(F)c1 (configuration not stated)
6. O=C(C[C@]1(O)C(=O)Nc2ccccc21)c1cccc(C(F)(F)F)c1
7. CC(=O)Oc1ccc(/C(=C(\C)c2ccc(Cl)cc2)c2ccc(OCCN3CCCCC3)cc2)cc1

stdout:
1. -13.2% (active)
2. 91.3% (inactive)
3. 60.7% (inactive)
4. 19.2% [100 µM] (inactive)
5. 39.2% (inactive)
6. 96.5% (inactive)
7. -16.3% (active)

Look at each compound and report its growth.
1. CCC(C)N(CCNc1cc(OC)cc2cccnc12)CC(C)C (configuration not stated)
2. C#CCNC(=O)[C@H](CC)[C@H]1CC[C@H](C)[C@H]([C@@H](C)[C@H](O)[C@H](C)C(=O)[C@H](CC)C2O[C@]3(C=CC(=O)[C@]4(CC[C@@](C)([C@H]5CC[C@](O)(CC)[C@H](C)O5)O4)O3)[C@H](C)C[C@@H]2C)O1 (some centres not stated)
3. COC(=O)/C=C1/SC(=Nc2ccc(C(F)(F)F)cc2)N(CCc2c[nH]c3ccc(O)cc23)C1=O
4. CNC(=O)c1ccccc1Oc1nc(Nc2cc(OC)c(OC)c(OC)c2)ncc1Br
5. COC1=CC(c2ccc[nH]2)=N/C1=C\c1[nH]c(C)c(C)c1CCC(=O)OCc1ccccc1

stdout:
71.7% (inactive)
28.8% (inactive)
3.12% (active)
59.9% (inactive)
-32.2% (active)

Quick request: growth for each listed item, please.
1. Nc1nc2ccccc2c2c1S(=O)(=O)c1ccc(Cl)cc1C2=O
2. COC(CC(F)F)c1cn(S(=O)(=O)c2ccc(C)cc2)c2ccccc12 (configuration not stated)
3. Cc1ccc(CNc2ccc3nc(CCC4CCCCC4)[nH]c3c2)cc1

stdout:
1: 1.95% (active); 2: 20% (inactive); 3: 12.7% (inactive)

Hi, could you look up growth for each item in my list?
1. COc1cc2c(c(OC)c1OC)CCC(c1cccc(C(=O)Nc3ccc(C#N)cc3)c1)O2 (configuration not stated)
2. CCCCNC(=O)CC1=C(C)/C(=C/c2[nH]c(-c3ccc[nH]3)cc2OC)N=C1C
3. CCOC(=O)C#Cc1c(C(=O)OCC)nnn1Cc1ccc([N+](=O)[O-])cc1
4. COc1ccc(/C=C(\C#N)n2nnc3ccc(Cl)cc32)cc1
5. O=C(Nc1nc2cc(C(=O)N3CCN(C(c4ccccc4)c4ccccc4)CC3)ccc2o1)c1ccc(NC2CCCCC2)c([N+](=O)[O-])c1
6. CS(=O)(=O)c1ccc(-c2cnn3ccc(-c4cccc(S(=O)(=O)C5CC5)c4)nc23)cc1

stdout:
["59.7% (inactive)", "2.62% (active)", "-20% (active)", "38.9% (inactive)", "35.1% (inactive)", "57% (inactive)"]

Go through the items and report each one's growth.
1. COc1ccccc1CNc1c2ccccc2nc2ccccc12
2. O=[N+]([O-])c1cccc(-c2nc3cc4nc5ccccc5[nH]c4cc3n2)c1
3. CC(C)(Sc1cc(C(C)(C)C)c(OC(=O)CCCC(=O)O)c(C(C)(C)C)c1)Sc1cc(C(C)(C)C)c(OC(=O)CCCC(=O)O)c(C(C)(C)C)c1
4. COc1ccc(/C=C(\C#N)n2nnc3cc(F)c(F)cc32)cc1
5. CC1(C)COB(OCC(C)(C)COB2OCC(C)(C)CO2)OC1

stdout:
1. 26% (inactive)
2. 99.5% (inactive)
3. 7.28% (active)
4. 29.9% (inactive)
5. 108% (inactive)

###

# System: U251 CNS
# ASSAY TEXT: NCI-60 one-dose screen, 48 h (100 = growth as untreated, 0 = no growth, -100 = all killed)
# EXPERIMENTAL SETUP: 10 µM unless noted
This is part of a sample that, as a whole, favours compounds with a hit. Of some 83,000 tested, about 20% had one in any assay. Calls of active or inactive are those of the source. How the source made its calls: active means growth percent below 10; inactive means the rest.
I'd appreciate it if you could supply growth values for the items below.

Consider the reported growth for these compounds:
1) C=CCSc1nnc(NC(=O)CCl)s1 :: 92% (inactive)
2) CCOC(=O)c1cc2c(n1Cc1cc(OC)c(OC)c(OC)c1)-c1nc(N)sc1CCC2 :: 38.9% (inactive)

Could you now consider this next compound?
stdin: Entry CC(=O)N1N=C(c2ccc(Nc3nc(Nc4ccccc4)nc(Nc4ccccc4)n3)cc2)CC1c1ccccc1 (stereo not drawn) : reported growth = ?
stdout: 92.6% (inactive)

###

# Test system: SR leukemia
# ASSAY TEXT: NCI-60 one-dose screen, 48 h (100 = growth as untreated, 0 = no growth, -100 = all killed)
# EXPERIMENTAL SETUP: 10 µM unless noted
# Protocol: Growth inhibition of the SR human tumor cell line is measured as a screen for anti-cancer activity. Cells are grown in 96 well plates and exposed to the test compound for 48 hours. Compounds are tested at a single concentration, which is 10^-5 M for most compounds. The reported endpoint is percent growth (GI% or GIPRCNT), where numbers from 0 - 100% represent growth inhibition, and numbers from -100% - 0 represent cell death. For example, a value of 40 represents 60% growth inhibition. […]
This is part of a sample that, as a whole, favours compounds with a hit. Of some 83,000 tested, about 20% had one in any assay.
QUANTITY: growth (%)
Give bare numbers, in %.

Some solved entries appear below for comparison.
1) Cc1ccc(Nc2cc(N)nc(N)n2)cc1Cl :: 108
2) COCCn1cc(-c2csc(-c3cn(C)c4ccc(Br)cc34)n2)c2cccnc21 :: 31.3
3) Nc1ncnc2c1C(c1ccc(Br)cc1)c1sc3c(F)cccc3c1O2 (stereo not given) :: 85.6
4) COC(=O)[C@]12CCC(C)(C)C[C@H]1[C@H]1/C(=N/OCCc3nn[nH]n3)C[C@@H]3[C@@]4(C)CC[C@H](OC(C)=O)C(C)(C)[C@@H]4CC[C@@]3(C)[C@]1(C)CC2 :: 31.8
5) Cc1ccccc1/C=C/C(=O)c1cccc(OCCCCOc2cccc(C(=O)/C=C/c3ccccc3C)c2)c1 :: 74.4

Each of the following entries comes with a recorded value; kindly state growth for each.
1. CNC(=O)c1ccccc1Oc1nc(Nc2cc(OC)c(OC)c(OC)c2)ncc1Br
2. OCCn1cc(-c2nc(-c3c[nH]c4ncccc34)cs2)c2cc(F)ccc21
3. CS(=O)(=O)Nc1cc(-c2ccc3ncnc(Nc4ccc5c(cnn5Cc5ccc(F)cc5)c4)c3c2)cnc1Cl
4. c1cnc2c(-c3nc4ccc5[nH]ncc5c4c4c3CCCC4)c[nH]c2c1
5. N=C(N)c1ccc(-c2ccc(-c3ccccc3)o2)cc1

stdout:
1: 42.9; 2: 22; 3: 34; 4: 5.93; 5: -29.3
